Provenance of the data: PubChem BioAssay

Target: Follistatin-related protein 3 (Homo sapiens)
Test: FSTL3 binders on small-molecule microarrays, primary screen, biochemical, small-molecule microarray, 635 nm fluorescence (AID 1105);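 further: score merges emission near 667 nm and signal to noise per printed spot across three slides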
Details: FSTL3 binding, higher = more signal
Assignment: determine reported composite z-score for the given compounds.
Please give the numeric answer without any surrounding text.

Given the entry CN1C(=O)C2C=CC(C(O)c3ccc(Br)cc3)N(N(c3ccccc3)c3ccccc3)C2C1=O (centres undefined) , report its measured composite z-score.
0.0397

Again, but for O=C1[C@H]2[C@H]3[C@H](O)[C@H](O)CC(=NO[C@@H]4O[C@H](CO)[C@@H](O)[C@H](O)[C@H]4O)[C@@H]3CC[C@H]2C(=O)N1c1ccc(F)cc1F
0.608

Again, but for CCOC(=O)C[C@H]1[C@H](OC(=O)c2cc3ccccc3oc2=O)[C@@H](NC(=O)c2ccc3ccccc3n2)c2cc(OCCCO)ccc2N1C(=O)c1ccccc1
0.948

Again, but for CO[C@@H]1COC(=O)CC=C[C@@H](C)COC(=O)[C@H](COCc2ccccc2)NC(=O)CC=C[C@H]1C
1.23

Again, but for O=C1[C@H]2[C@H]3[C@H](O)[C@H](O)CC(=NO[C@@H]4O[C@H](CO)[C@@H](O)[C@H](O)[C@H]4O)[C@H]3CC[C@H]2C(=O)N1Cc1ccccc1
0.0042

Again, but for CCCC[C@H]1OB(O)C[C@H]2C1=C(C)C[C@H]1C(=O)N(C)C(=O)[C@H]12
1.27

Again, but for CO[C@H]1COC(=O)[C@H](C)NC(=O)[C@@H](C)COC(=O)CC=C[C@@H]1C
0.0078

Again, but for CC(C)NC(=O)[C@@]1(c2ccc([N+](=O)[O-])cc2)CC(=O)N(CC23CC4CC(CC(C4)C2)C3)[C@@H]1c1ccc(CO)cc1I
0.252

Again, but for COCCOC(=O)N1C(=O)[C@@]2(c3cc(C#CC4(O)CCCCCC4)ccc31)[C@H](C(=O)N1CCN(c3ncccn3)CC1)[C@H]1C(=O)O[C@H](c3ccccc3)[C@H](c3ccccc3)N1[C@@H]2c1ccc(OCCO)cc1
1.19

Again, but for O=C1[C@H]2[C@H]3[C@H](O)[C@H](O)CC(=NOC[C@@H](O)COCc4ccco4)[C@H]3CC[C@H]2C(=O)N1C1CCCCC1
0.499

Again, but for COCCCNC(=O)[C@@]1(CCS(=O)(=O)c2ccccc2)N=C(c2ccc(OCCCO)cc2)O[C@H]1c1ccccc1
-0.21

Again, but for COc1cccc([C@H]2Oc3ccc(OC)cc3C(=NO[C@H](C)c3cn([C@@H]4COC[C@H]4O)nn3)[C@@H]2O)c1
-0.525

Again, but for O=C1[C@H]2[C@H]3[C@H](O)[C@H](O)CC(=NOCc4ccccc4)[C@H]3CC[C@H]2C(=O)N1c1cccc(Oc2ccccc2)c1
0.911

Again, but for O=C1[C@H]2[C@H]3[C@H](O)[C@H](O)CC(=NOC[C@@H](O)COCc4ccco4)[C@H]3CC[C@H]2C(=O)N1Cc1ccc2c(c1)OCO2
0.83
